- Test system: ragweed (common ragweed, Ambrosia elatior)
- assay: Test A preemergence
- Type: in vivo
- details: Preemergence, 500 g ai/ha, visual injury approx. 10 d
Below, each of the molecules is paired with its reported Ragweed plant response rating (0 to 100 scale, 0 is no effect, 100 is complete control) value.
Please state the value as a number alone, without comment.

Solved cases (3 shown):
O=C1NCC(c2ccsc2Cl)C1C(=O)Nc1ccccc1F (stereo not shown) [Compound 599] = 0
O=C(Nc1ccccc1F)C1C(=O)N(c2ccc([N+](=O)[O-])cc2)CC1c1cccc(C(F)(F)F)c1 (stereo not shown) [Compound 602] = 0
O=C1NCC(c2ccc(C(F)(F)F)c(F)c2)C1C(=O)Nc1cccc(F)c1F (racemic) [Compound 504] = 50

Provide the documented Ragweed plant response rating (0 to 100 scale, 0 is no effect, 100 is complete control) with ragweed (common ragweed, Ambrosia elatior) as the system for CN1CC(c2ccc3c(c2)OC(F)(F)O3)C(C(=O)Nc2cccc(F)c2F)C1=O (stereo not shown) [Compound 442] 60

---

- Tested on: Kochia (Kochia scoparia)
- assay: Test A preemergence
- Assay type: in vivo
- details: 125 g ai/ha, Preemergence; visual injury after approximately 10 d; 0 to 100 scale where 0 is no effect and 100 is complete control
measuredParameter: Plant response rating, Kochia
Please state the value as a number alone, without comment.

Solved cases (3 shown):
Cc1cccc(C2CN(C)C(=O)C2C(=O)Nc2ccccc2F)c1 (stereo not shown) = 20
O=C1NCC(c2cc(F)cc(C(F)(F)F)c2)C1C(=O)Nc1ccc(F)cc1F (stereo not shown) = 0
O=C1NCC(c2ccsc2Cl)C1C(=O)Nc1cccc(F)c1F (stereo not shown) = 0

Look up Plant response rating, Kochia: C=CCN1CC(c2cccc(C(F)(F)F)c2)C(C(=O)Nc2ccccc2F)C1=O (stereo not shown) 0

Also check CS(=O)(=O)c1ccccc1NC(=O)C1C(=O)NCC1c1ccc(C2CC2)cc1 (racemic) 0

Also check COc1c(F)ccc(NC(=O)C2C(=O)NCC2c2cccc(OC(F)(F)C(F)F)c2)c1F (racemic) 0

Also check CN1CC(c2ccc(C(C)(F)F)cc2)C(C(=O)Nc2ccccc2S(C)(=O)=O)C1=O (stereo not shown) 70

Also check C#Cc1cccc(C2CNC(=O)C2C(=O)Nc2cccc(F)c2F)c1 (racemic) 20

Also check CN1CC(c2cccc(OC(F)F)c2)C(C)(C(=O)Nc2cccc(F)c2F)C1=O (stereo not shown) 20

Also check O=C1NCC(c2csc(Br)c2)C1C(=O)Nc1ccccc1F (stereo not shown) 0

Also check O=C1NCC(c2cccc(Br)c2)C1C(=O)Nc1ccc(F)c(F)c1F (racemic) 20

Also check CN1CC(c2ccc(C(C)(F)F)cc2)C(C(=O)Nc2ccc(F)cc2F)C1=O (stereo not shown) 80

Also check Cc1ccc(C2CN(C)C(=O)C2C(=O)Nc2ccccc2S(C)(=O)=O)cc1 (stereo not shown) 70

Also check Cc1ccc(C2CN(C)C(=O)C2C(=O)Nc2ccccc2C(F)(F)F)cc1 (stereo not shown) 60

Also check Cc1ccc(C2CN(C)C(=O)C2C(=O)Nc2ccccc2S(C)(=O)=O)c(F)c1 (stereo not shown) 70

Also check O=C1NCC(c2cc(C(F)(F)F)cc(C(F)(F)F)c2)C1C(=O)Nc1cccc(F)c1F (stereo not shown) 0

Also check Cc1ccc(C2CN(C)C(=O)C2C(=O)Nc2ccc(F)cc2F)cc1 (stereo not shown) 70

Also check O=C1NCC(c2cccc(C(F)(F)F)c2)C1C(=O)Nc1ccc(Cl)cc1F (racemic) 0

Also check CC(C)Oc1cccc(C2CN(C)C(=O)C2C(=O)Nc2ccccc2S(C)(=O)=O)c1 (stereo not shown) 0

---

- System: Kochia (Kochia scoparia)
- assay: Test A postemergence
- Type: in vivo
- details: 125 g ai/ha, postemergence; visual rating after approx. 10 d, 0 to 100 scale (0 no effect, 100 complete control)
Below, each of the compounds is paired with its reported Plant response rating, Kochia value.
Please state the value as a number alone, without comment.

Solved cases (2 shown):
CC(C)Oc1cccc(C2CN(C)C(=O)C2C(=O)Nc2ccccc2S(C)(=O)=O)c1 (centres unmarked) = 0
O=C1NCC(c2ccc(OC(F)F)cc2)C1C(=O)Nc1cccc(F)c1F (centres unmarked) = 70

Look up Plant response rating, Kochia: O=C(Nc1ccccc1F)C1C(=O)N(c2ccc([N+](=O)[O-])cc2)CC1c1cccc(C(F)(F)F)c1 (centres unmarked) 0

Also check O=C1NCC(c2csc(Br)c2)C1C(=O)Nc1cccc(F)c1F (racemic) 30

Also check N#Cc1cccc(C2CNC(=O)C2C(=O)Nc2cccc(F)c2F)c1 (centres unmarked) 0

Also check Cc1ccc(C2CNC(=O)C2C(=O)Nc2ccccc2F)cc1C(F)(F)F (racemic) 20

Also check Cc1ccc(C2CN(C)C(=O)C2C(=O)Nc2ccccc2S(C)(=O)=O)c(F)c1 (centres unmarked) 20

---

- Test system: barnyardgrass (Echinochloa crus-galli)
- assay: Test A postemergence
- Type: in vivo
- details: Postemergence, 125 g ai/ha; visual injury, 0 to 100 scale (0 no effect, 100 complete control), approx. 10 d
Below, each of the compounds is paired with its reported Plant response rating, Barnyardgrass value.

Solved cases (5 shown):
O=C1NCC(c2cccnc2)C1C(=O)Nc1ccccc1C(F)(F)F (racemic) = 0
CC(C)Oc1cccc(C2CN(C)C(=O)C2C(=O)Nc2ccc(F)cc2F)c1 (stereo not drawn) = 80
Nc1cccc(C2CNC(=O)C2C(=O)Nc2cccc(F)c2F)c1 (stereo not drawn) = 0
CN1CC(c2cccc(OC(F)(F)C(F)F)c2)C(C(=O)Nc2cccc(F)c2F)C1=O (stereo not drawn) = 80
O=C1NCC(c2ccccc2-c2ccccc2)C1C(=O)Nc1cccc(F)c1F (racemic) = 0

# context switch: different compound, same Plant response rating, Barnyardgrass
Provide the documented Plant response rating, Barnyardgrass with barnyardgrass (Echinochloa crus-galli) as the system for O=C1NCC(c2ccc(-c3ccccc3)cc2)C1C(=O)Nc1ccccc1C(F)(F)F (racemic) 0

---

- Tested on: corn (Zea mays)
- assay: Test A postemergence
- Type: in vivo
- details: Zea mays, post-emergence, 240 h, 125 g ai/ha, Postemergence, visual rating about 10 d after treatment; read-out: Corn plant response rating (0 to 100 scale)
measuredParameter: plant injury at 125 g/ha (%)
# unit: % | format: bare number

Solved cases (4 shown):
O=C1NC[C@H](c2cccc(C(F)(F)F)c2)[C@H]1C(=O)Nc1ccccc1-n1cncn1 [Compound 1290] = 0
O=C1NC[C@H](c2cncs2)[C@H]1C(=O)Nc1cccc(F)c1F [Compound 1336] = 0
Cc1cccc([C@H]2CN(C)C(=O)[C@@H]2C(=O)Nc2cccnc2F)c1 [Compound 1345] = 0
CN1C[C@H](c2ccc(C(F)(F)F)cc2)[C@@H](C(=O)Nc2cccc(C#N)c2F)C1=O [Compound 1381] = 40

Look up plant injury at 125 g/ha: CN1C[C@H](c2ccc(C(F)(F)F)cc2)[C@@H](C(=O)Nc2ccccc2-n2cccn2)C1=O [Compound 1283] 0

Also check O=C1NC[C@H](c2nccc(C(F)(F)F)n2)[C@H]1C(=O)Nc1ccccc1F [Compound 1304] 0

Also check O=C1NCC(c2ccccc2)C1C(=O)Nc1ccc(C(F)(F)F)cc1 (stereo not shown) [Compound 1362] 0

Also check CN1C[C@H](c2ccc3c(c2)CCO3)[C@@H](C(=O)Nc2ccccc2F)C1=O [Compound 1321] 40

Also check Cc1cc(F)cc([C@H]2CNC(=O)[C@@H]2C(=O)Nc2cccc(F)c2F)c1 [Compound 1309] 0

Also check CN1C[C@H](c2csc3c2CCC(F)(F)C3)[C@@H](C(=O)Nc2cccc(F)c2F)C1=O (racemic) [Compound 1369] 0

---

- Test system: Galium (catchweed bedstraw, Galium aparine)
- assay: Test A postemergence
- Format: in vivo
- details: Galium, post-emergence, 240 h, 125 g ai/ha, postemergence; visual injury after approximately 10 d; 0 to 100 scale (0 no effect, 100 complete control); read-out: Plant response rating, Galium
measuredParameter: pest or weed control at 125 g/ha (%)
# unit: % | format: bare number

CCc1ccc([C@H]2CNC(=S)[C@@H]2C(=O)Nc2cccc(F)c2C)cc1 [Compound 761] = 0
CCc1ccc([C@H]2CNC(=S)[C@@H]2C(=O)Nc2cccc(F)c2F)cc1 [Compound 762] = 0
O=C1NC[C@H](c2cnc(C(F)(F)F)nc2)[C@H]1C(=O)Nc1ccccc1F [Compound 741] = 0
O=C1NC[C@H](c2ccc3c(c2)OCO3)[C@H]1C(=O)Nc1cccc(F)c1F [Compound 731] = 20
CC(F)(F)c1cccc([C@H]2CNC(=O)[C@@H]2C(=O)Nc2ccccc2F)c1 [Compound 782] = 70

Look up pest or weed control at 125 g/ha: O=C1NC[C@H](c2ccc3c(c2)CCO3)[C@H]1C(=O)Nc1cccc(F)c1F [Compound 785] 50

Also check O=C1NC[C@H](c2cc(F)c(F)c(F)c2)[C@H]1C(=O)Nc1ccc(F)c(F)c1F [Compound 756] 50

Also check CN1C[C@H](c2ccc(C(F)(F)F)cc2)[C@@H](C(=O)Nc2ccccc2C2CC2)C1=O [Compound 747] 60

Also check CCc1ccc([C@H]2CNC(=S)[C@@H]2C(=O)Nc2ccccc2SC)cc1 [Compound 763] 0
